B1: Kinesin-like protein KIF16B, residues 1213 to 1273; numbered along this chain, Q96L93 (parent)
chain: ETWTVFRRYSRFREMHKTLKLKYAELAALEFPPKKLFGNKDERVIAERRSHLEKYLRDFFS

Variants of: B1
Assay: abundance fitness (aPCA) (normalised: wild type 0, dead -1); higher = more abundant; growth selection in yeast, the domain comes from the species named
Settings: Homo sapiens
Returns t if the recorded abundance fitness is greater than or equal to -0.3, and f otherwise.

Query: Could you verify whether the entry R57A shows abundance fitness of no less than -0.3?
Result: f

Query: Test whether the variant R43T records abundance fitness of -0.3 or higher.
Result: t

Query: Evaluate S10V : abundance fitness at minimum -0.3?
Result: t

Query: Determine whether measured abundance fitness meets or exceeds -0.3 for R11G
Result: t

Query: Identify whether the reported abundance fitness of the following variant is -0.3 or greater: H51S
Result: t

Query: Is abundance fitness for R43E at or above -0.3?
Result: t

Query: Is abundance fitness for M15E at or above -0.3?
Result: f

Query: Threshold query (abundance fitness >= -0.3) on V44G
Result: t

Query: Check if abundance fitness >= -0.3 (inclusive). Item: R13C
Result: f

Query: Given the entry W3F , answer whether its abundance fitness meets or surpasses -0.3.
Result: t

Query: API: above_or_equal(metric=abundance fitness, cutoff=-0.3) for item E53W
Result: t

Query: Say whether L36V shows abundance fitness of -0.3 or more.
Result: f

Query: Quick check: does F37R have abundance fitness greater than or equal to -0.3?
Result: f

Query: Say whether E47Y shows abundance fitness of -0.3 or more.
Result: t

Query: Determine whether this variant has abundance fitness no lower than -0.3: Y9W
Result: t

Query: Please tell me: is the variant D58P at or over -0.3 in terms of abundance fitness?
Result: t

Query: Kindly determine if abundance fitness recorded for T4V is above or exactly -0.3.
Result: f

Query: Is abundance fitness for E53C at or above -0.3?
Result: t

Query: Can I45M be said to have abundance fitness at or above -0.3?
Result: t

Query: # bool: abundance fitness of F60S >= -0.3
Result: f

Query: Dear colleague, could you confirm whether K35T has abundance fitness at or above -0.3?
Result: f

Query: Determine whether measured abundance fitness meets or exceeds -0.3 for Y23M
Result: t

Query: Is reported abundance fitness greater than or equal to -0.3 here: T18V
Result: t

Query: Could you please find out whether D58A has abundance fitness that meets -0.3 or exceeds it?
Result: t

Query: API: above_or_equal(metric=abundance fitness, cutoff=-0.3) for item F31S
Result: f

Query: Would you say N39E shows abundance fitness at minimum -0.3?
Result: f

Query: Exam item: decide whether the reported abundance fitness for K20E is at least -0.3.
Result: f

Query: Does abundance fitness meet or surpass -0.3 for S61C ?
Result: f

Query: Please tell me: is the variant Y9I at or over -0.3 in terms of abundance fitness?
Result: t

Query: Please tell me: is the variant E53H at or over -0.3 in terms of abundance fitness?
Result: t

Query: Decide: is the reported value of abundance fitness for F12C equal to or greater than -0.3?
Result: t

Query: Confirm if abundance fitness reported for the variant R57W is -0.3 or above.
Result: f

Query: State whether the measured abundance fitness reaches -0.3, counting equality as reaching it, for Y23G
Result: f

Query: Does the variant V5K have recorded abundance fitness that is -0.3 or more?
Result: t

Query: Given P33D , state whether its abundance fitness is at least -0.3.
Result: f

Query: Threshold query (abundance fitness >= -0.3) on F12G
Result: f

Query: Check if abundance fitness >= -0.3 (inclusive). Item: Y55S
Result: t

Query: Check this variant for abundance fitness at or above -0.3: R13T
Result: t

Query: Record F37W ; criterion: abundance fitness no lower than -0.3. Met?
Result: f

Query: Assess whether reported abundance fitness for Y55D sits at -0.3 or higher.
Result: f

Query: abundance fitness >= -0.3 for Y55A ?
Result: t

Query: I'd appreciate it if you could say whether L52F has abundance fitness at least equal to -0.3.
Result: t

Query: Test whether the variant F37K records abundance fitness of -0.3 or higher.
Result: t

Query: Does the variant T18C have recorded abundance fitness that is -0.3 or more?
Result: t

Query: Quick check, abundance fitness >= -0.3? M15T
Result: f

Query: Has F60M a recorded abundance fitness greater than or equal to -0.3?
Result: t
